Assayed System: mouse originated antibody MIgG3
Assay Remarks: SPR (Biacore 3000), hybrid of 1a on a CM-5 chip, antibody at 100 to 1000 nM, nonlinear regression with BIAevaluation; Kon and Koff printed as NA
Reported Endpoint: Kd

Return value of Kd for input EDDCAWHLGELVWCT (N-terminal H2N(CH2CH2O)2CH2CH2CO- (PEG linker); C-terminal amide (CONH2); disulfide bond between the two Cys (C*), Synthetic peptide-PEG hybrid; In the assays it was coupled through its terminal amine to a CM-5 chip, magnetic micro beads or a glass plate; also called hybrid of 1a; peptide hybrid of 1a) , no commentary.
> 20 µM
